Each recorded value in this set is attributed to PubChem BioAssay (NCI).

# System: SK-MEL-2 melanoma
# ASSAY PROTOCOL: NCI-60 one-dose screen, 48 h
# STATED CONDITIONS: 10 µM unless noted
The panel holds about 83,000 compounds, 20% with a hit somewhere; the sample as a whole holds those more often. The source made the active and inactive calls. Rule for the calls: active = growth percent below 10; inactive = the rest.
# valid calls are 1 for active, -1 for inactive; nothing else

Completed entries (count: 8):
{"columns": ["MOLECULE", "CLASS ASSIGNMENT"],
 "data": [
  ["C[C@H]1[C@H](C)CC[C@]2(C(=O)NCC#CCN3CCN(C)CC3)CC[C@]3(C)C(=CC[C@@H]4[C@@]5(C)Cc6c([nH]c7ccccc67)C(C)(C)[C@@H]5CC[C@]43C)[C@H]12", -1],
  ["O=C(Nc1cccc(C(=O)N2CCc3ccc(Cl)cc32)c1)c1ccco1", -1],
  ["CCN1C(=O)/C(=C/C(=O)OC)S/C1=N\\NC(=O)c1cc2ccc1/C=C\\c1ccc(cc1)/C=C\\2", -1],
  ["Brc1ccc2[nH]cc(-c3cncn3CCc3ccccc3)c2c1", -1],
  ["Cc1cccc(NC(=O)Nc2ccc(-c3ccc4c(c3)NC(=O)/C4=C\\c3ccc[nH]3)cc2)c1", -1],
  ["COc1cc(/C=N/O)nc(-c2ccccn2)c1", -1],
  ["CC(C)=CCC[C@](C)(O)[C@H]1CC[C@]2(C)[C@@H]1CC[C@@H]1[C@@]3(C)C/C(=C/c4ccccc4)C(=O)C(C)(C)[C@@H]3CC[C@]12C", -1],
  ["Cc1cc2cc3ccc(N(C)C)cc3nc2cc1N", 1]
]}

Q) Recorded test call requested for COc1cccc(/C=N/NC(=O)c2cnn3c2NC(c2ccccc2)C3)c1Oc1ccccc1 (stereo not drawn)
A) -1

Q) CN(C)CCC(=O)c1ccc([N+](=O)[O-])cc1 , same question.
A) -1

Q) Ok, now CCOC(=O)c1cc(C(=O)c2ccc(OC)c(OC)c2)n2ccc(/C=C/c3cc[n+](CC(=O)c4ccc(OC)c(OC)c4)cc3)cc12
A) -1

Q) Repeat with Nc1ccccc1NC(=O)c1ccc(-n2nc(-c3ccccc3)c3ccccc32)cc1
A) -1

Q) Another molecule to look at: COc1cc(NC(C)CCCNC(=O)CCC(=O)NCCCNCCCCCCCCNCCCNC(=O)CCC(=O)NCCCC(C)Nc2cc(OC)cc3cccnc23)c2ncccc2c1 (stereo not drawn)
A) -1

Q) Try S=c1cc(S)c2cc(Br)ccc2[nH]1 next.
A) -1

Q) Then what about the molecule Cc1cccc(C)c1N=c1oc2ccc(Cl)cc2nc1-c1ccccc1O ?
A) -1

Q) How about this molecule: c1ccc(-c2c(-c3ccccc3)[n+](Cc3ccc4ccccc4c3)c(-c3cccc4ccccc34)n2Cc2ccc3ccccc3c2)cc1
A) 1

Q) Can you check C#Cc1cccc(NC(=O)c2cccc(NC(=O)CCl)c2)c1 next?
A) -1

Q) # repeat for COc1cc(/C=C/c2cc(O)c(C(C)=O)c(O)c2)cc2c1O[C@]1(C)CC[C@@H](O)C(C)(C)[C@H]1C2
A) -1

Q) Another: C=CCN1C(=O)/C(=C/C(=O)OC)S/C1=N\NC(=O)c1cc2ccc1/C=C\c1ccc(cc1)/C=C\2
A) -1

Q) Item: N#C/C(=C\c1ccc([N+](=O)[O-])s1)c1nc2cc(Cl)ccc2s1
A) 1
